These entries and their values trace back to patent US9561289B2.

Each item that follows carries a reported Ki.
assay_target: T1, Recombinant human integrin αvβ8 (human, UniProt P06756 31-992; P26012 43-684)
T1 construct: Bought from R&D System; also called αvβ38 [sic]
T1 sequence (P06756 31-992 limits assumed, chain 1 of 2): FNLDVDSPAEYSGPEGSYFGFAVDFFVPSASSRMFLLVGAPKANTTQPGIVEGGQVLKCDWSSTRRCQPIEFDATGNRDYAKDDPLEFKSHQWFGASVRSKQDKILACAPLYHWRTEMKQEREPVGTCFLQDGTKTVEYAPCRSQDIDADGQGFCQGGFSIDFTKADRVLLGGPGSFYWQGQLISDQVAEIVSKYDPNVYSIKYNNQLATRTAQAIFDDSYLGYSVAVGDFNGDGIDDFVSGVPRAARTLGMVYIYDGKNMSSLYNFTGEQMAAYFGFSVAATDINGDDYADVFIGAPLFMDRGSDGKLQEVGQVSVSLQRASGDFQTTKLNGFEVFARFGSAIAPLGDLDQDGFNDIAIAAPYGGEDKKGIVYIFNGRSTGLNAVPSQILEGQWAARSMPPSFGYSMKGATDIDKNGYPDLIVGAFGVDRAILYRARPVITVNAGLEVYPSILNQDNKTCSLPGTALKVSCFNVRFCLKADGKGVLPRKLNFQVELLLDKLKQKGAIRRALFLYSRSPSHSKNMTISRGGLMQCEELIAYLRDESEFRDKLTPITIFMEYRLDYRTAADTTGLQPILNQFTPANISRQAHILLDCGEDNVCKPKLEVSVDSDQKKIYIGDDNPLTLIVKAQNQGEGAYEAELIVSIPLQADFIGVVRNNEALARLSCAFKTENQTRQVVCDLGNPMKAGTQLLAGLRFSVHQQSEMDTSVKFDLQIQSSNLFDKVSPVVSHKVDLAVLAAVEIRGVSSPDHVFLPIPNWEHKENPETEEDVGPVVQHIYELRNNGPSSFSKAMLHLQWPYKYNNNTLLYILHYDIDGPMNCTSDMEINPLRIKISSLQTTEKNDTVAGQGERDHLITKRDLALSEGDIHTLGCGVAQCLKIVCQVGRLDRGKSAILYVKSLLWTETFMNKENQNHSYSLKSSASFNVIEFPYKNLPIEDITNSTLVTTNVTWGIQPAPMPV
T1 sequence (P26012 43-684 limits assumed, chain 2 of 2): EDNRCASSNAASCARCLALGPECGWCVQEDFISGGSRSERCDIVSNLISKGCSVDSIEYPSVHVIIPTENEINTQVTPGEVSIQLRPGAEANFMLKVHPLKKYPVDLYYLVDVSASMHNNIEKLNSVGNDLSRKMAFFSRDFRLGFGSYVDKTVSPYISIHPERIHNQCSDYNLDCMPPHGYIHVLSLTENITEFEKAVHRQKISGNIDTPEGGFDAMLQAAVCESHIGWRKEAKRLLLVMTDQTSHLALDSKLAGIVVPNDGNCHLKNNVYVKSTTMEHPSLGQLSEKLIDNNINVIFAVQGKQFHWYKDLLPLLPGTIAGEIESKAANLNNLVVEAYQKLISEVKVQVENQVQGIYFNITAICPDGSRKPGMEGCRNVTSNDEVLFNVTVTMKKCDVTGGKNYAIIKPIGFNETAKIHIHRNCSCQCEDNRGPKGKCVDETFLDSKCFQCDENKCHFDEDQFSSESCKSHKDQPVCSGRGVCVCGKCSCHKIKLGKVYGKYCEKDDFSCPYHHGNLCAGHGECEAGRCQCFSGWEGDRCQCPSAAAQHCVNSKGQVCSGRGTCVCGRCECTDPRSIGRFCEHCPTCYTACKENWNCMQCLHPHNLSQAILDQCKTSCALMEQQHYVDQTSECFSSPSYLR
measurement_protocol: competitive binding assay, integrin-coated plate, probe isoDGR/STV-HRP
*1 amine or outer side, *2 acyl side, *3 side chain or, on linkers, in order; H or OH if unused. Primed or numbered codes have the meaning given here. Side-chain parts run from the residue outwards. [ ]: non-standard residue; d: D form. The star is where a group is joined. βAsp = O=C(O)[C@H](CC(=O)[*:2])N[*:1]; SMCC = sulfo-SMCC linker; OH′ = O*
Only the number, expressed in µM, is required.

>>> reported_result("cyclo(C([SMCC-OH′])G[βAsp]GRG) (HPLC peak P2 (carboxylic form, partial hydrolysis of sulfo-succinimide); also called isoDGR#1-P2) [isoDGR#1-linker conjugate, peak P2]")
10.5

Okay, now this binder:
Data point: cyclo(C([SMCC-NH2])G[βAsp]GRG) (HPLC peak P1 (amido form); also called isoDGR#1-P1) [isoDGR#1-linker conjugate, peak P1] ; Ki = 5.6
